Item-by-item account of pIC50
- Test system: MS (Pseudomonas aeruginosa, UniProt Q9I636)
- Sequence (Q9I636 whole entry): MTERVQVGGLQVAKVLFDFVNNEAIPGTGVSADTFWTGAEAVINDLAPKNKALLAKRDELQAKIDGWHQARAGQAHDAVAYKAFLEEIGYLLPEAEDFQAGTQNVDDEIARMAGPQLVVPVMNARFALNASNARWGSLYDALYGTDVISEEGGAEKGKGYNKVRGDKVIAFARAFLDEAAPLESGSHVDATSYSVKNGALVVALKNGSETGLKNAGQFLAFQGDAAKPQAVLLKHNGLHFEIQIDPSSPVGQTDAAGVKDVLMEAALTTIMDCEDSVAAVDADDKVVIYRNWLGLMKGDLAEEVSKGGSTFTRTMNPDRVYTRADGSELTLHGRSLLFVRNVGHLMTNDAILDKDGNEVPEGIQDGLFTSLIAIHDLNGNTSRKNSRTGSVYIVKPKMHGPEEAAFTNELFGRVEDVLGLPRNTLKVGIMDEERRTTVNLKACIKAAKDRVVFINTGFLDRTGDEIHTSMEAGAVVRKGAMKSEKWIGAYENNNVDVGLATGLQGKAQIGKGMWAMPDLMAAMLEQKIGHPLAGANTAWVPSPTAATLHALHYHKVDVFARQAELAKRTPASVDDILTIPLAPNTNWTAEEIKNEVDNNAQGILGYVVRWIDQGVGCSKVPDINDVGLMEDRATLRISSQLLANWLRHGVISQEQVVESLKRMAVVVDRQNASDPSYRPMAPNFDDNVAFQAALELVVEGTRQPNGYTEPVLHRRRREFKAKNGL
- Assay protocol: DTNB detection of coenzyme A at […] nm
pIC50: −log10 of the molar value.

Compound	Test system	pIC50
CC(C)(C)OC(=O)NC(=Nc1cc(CCC(=O)O)ccn1)NC(=O)OC(C)(C)C	MS (Pseudomonas aeruginosa, UniProt Q9I636)	5.89
CC(C)(C)OC(=O)/N=C(\NC(=O)OC(C)(C)C)Nc1cc(Cl)ccn1	MS (Pseudomonas aeruginosa, UniProt Q9I636)	5.28
N=C(N)Nc1cccc2ncccc12	MS (Pseudomonas aeruginosa, UniProt Q9I636)	5.16
N=C(N)Nc1ccc2nn[nH]c2c1	MS (Pseudomonas aeruginosa, UniProt Q9I636)	5.05
Nc1nnc(SCc2ccc(O)c3ncccc23)s1	MS (Pseudomonas aeruginosa, UniProt Q9I636)	6.74
COc1ccccc1N1CCN(CCCNC(=O)C(Cc2ccc(F)c(F)c2)C(C)=O)CC1 (racemic)	MS (Pseudomonas aeruginosa, UniProt Q9I636)	5.75
